- Test Summary: protein stability index of a GFP-peptide fusion (GPS, HEK-293T) (PSI 1-6); higher = more stable;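 also: 24-mer peptide tiles fused after GFP, lentivirally expressed, FACS-sorted into six equal bins by GFP/DsRed ratio, decoded by Illumina sequencing, PSI is the read-weighted mean bin number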
- Test Settings: treatment: DMSO; c terminus: a fixed tail appended
We use 3 as the dividing line for protein stability index: on or above the line is 1, below is -1.

Ask: Exam item: decide whether the reported protein stability index for KEAVLAMEKKSKPKNSVWKRLKSP [RIT1] is at least 3.
Result: 1

Ask: Exam item: decide whether the reported protein stability index for RNVRFSDEGGFTCFFRDHSYQEEA [MOG] is at least 3.
Result: 1

Ask: Exam item: decide whether the reported protein stability index for LTIEERYLPQCSYFKCVQKDIQPY [CCND2] is at least 3.
Result: -1

Ask: Exam item: decide whether the reported protein stability index for GLVTAALHMVIVAAFTWAFTLFFE [KMT2E] is at least 3.
Result: -1

Ask: Exam item: decide whether the reported protein stability index for PVSCCLGLLLESLVPFIVNDNITN [DYNC2LI1] is at least 3.
Result: -1

Ask: Exam item: decide whether the reported protein stability index for EQCVSFNSHVYNGRTHQWKPLYPD [ADAMTSL2] is at least 3.
Result: 1

Ask: Exam item: decide whether the reported protein stability index for PPVPCVPSVPCTPAPQVGTQIRTI [KRT36] is at least 3.
Result: 1

Ask: Exam item: decide whether the reported protein stability index for EPNTLRAPRVRTAFTMEQVRTLEG [VENTX] is at least 3.
Result: 1

Ask: Exam item: decide whether the reported protein stability index for KDWLEGTVRGATGIFPLSFVKILK [NCF4] is at least 3.
Result: -1

Ask: Exam item: decide whether the reported protein stability index for VSARSREGRGGRPGSTRPHRSACS [HAGHL] is at least 3.
Result: 1

Ask: Exam item: decide whether the reported protein stability index for GSPGMIYSTRYGSPKRQLQFYRNL [KCNAB2] is at least 3.
Result: -1

Ask: Exam item: decide whether the reported protein stability index for LRKIIDFIYTAKLSLNMDNLQDTL [KLHL13] is at least 3.
Result: -1

All values here come from the supplement of paper PMC10567573.
